- TEST DETAILS: yeast display, Sf9 membrane polyspecificity reagent, FACS + sequencing; frameworks hold sequencing errors
MEASURED METRIC: polyreactivity (PSR sort gate)

Example cases with answers are listed next.
{"SEQUENCE ENTRY": "QVQLVESGGGLVQAGGSLRLSCAASGIIFAYAMGWYRQAPGKERELVAAISGRDGSTYYADSVKGRFTISRDNAKNTVYLQMNSLKPEDTAVYYCAKRISYLPVEMDYWGQGTQVTVSS", "TEST VALUE": "low polyreactivity"}
{"SEQUENCE ENTRY": "QVQVVESGGGLVKAAGSLGLSCSASGLNFRFYTMGWYRQAPGKERELVAAISTSGGSTYYADSVKGRFTISRDNAKNNVFLQMNSLKPEDTAVYYCIAVYAFNGYDYWGQGTQVTVSS", "TEST VALUE": "low polyreactivity"}
{"SEQUENCE ENTRY": "QVQIVESGGGLVQAGGSLSLICAASGYIFGNYAMGWYRQAPGKESELVADITWRGDSTYADSVKGRFTISRDNSKNTVYLQMNSLKPEDTAVYYCAADIATEYWYTGYDHWGQGTQVTVSS", "TEST VALUE": "low polyreactivity"}
{"SEQUENCE ENTRY": "QVQLVESGGGLVQAGGSLRLSCAASGFTFEYYAMGWYRQAPGKEREFVAAISARGDSTYYADSVKGRFTISRDNAKNTVYLQMNSLKPEDSAVYYCAKKTSPRRYYYWGQGTQVTVSS", "TEST VALUE": "high polyreactivity"}
{"SEQUENCE ENTRY": "QVQLLESGGGLVQAGGSLRLTCAASGSTFDYYAMGWYRQAPGKERELVATISYNDDTTYYADSVKGRFTISRDNAKNTVYLQMNSLKPEDTAVYYCNAEVYGGRYYVDMYYWGQGTQVTVSS", "TEST VALUE": "low polyreactivity"}
{"SEQUENCE ENTRY": "QVQHVESRGGLVQAGGSLRLSCAASGRTFFWYAMGWYRQAPGKERELVADISSSGGSTYYADSVKGRFTISRDNAKNTVYLQMNSLKPEDTAVYYCAALSPWWRGGYNYWGQGTQVTVSS", "TEST VALUE": "high polyreactivity"}

Quick note, polyreactivity (PSR sort gate) for `QVQHVESGGGLVQAGGSQRLSCAASGSIFDYYAMGWYRQAPGKERELVAAISTSTSSTYYADSVKGRFTISRDNAKNTVYLQLNSLKPEDTAVYYCAAVGESQPEYPGYDYWGQGTQVTVSS` landed at low polyreactivity

Quick note, polyreactivity (PSR sort gate) for `QVQLVESGGGLVQAGGSLRLSFAASGLIFDSNAMGWYRQAPGKERELVASTYYADSVKGRFTISRDNAKNTVYLQMNSLKPEDTAVYYCATTSVYKSVTYDYWGQGTQVTVSS` landed at low polyreactivity

Quick note, polyreactivity (PSR sort gate) for `QVQLVESGGGLVQAGGSLRLSCAASGSTFWKYAMGWYRQAPGKERELVARISRNGGSTYYADSVKGRFTISRDNAKNTVYLQMNSLKPEDTAVYYCATAYVHYVYKYDYWGQGTQVTVSS` landed at high polyreactivity

Quick note, polyreactivity (PSR sort gate) for `QVQLVESGGGLVQAGGSLRLSCAASGFIFSKYAMGWYRQAPGKERELVAAISTSGASTYYADSVKGRFTISRDNAKNTVYLQMNSLKPEDTAVYYCNVPRYSPIRNYDYWGQGTQVTVSS` landed at high polyreactivity

Quick note, polyreactivity (PSR sort gate) for `QVQLVESGGGLVQAGGSLRLSCAASGRTSRVNAMGWYRQAPGKERELVATITKSGGSTFYADSVKGRFTISRDNAKNTVYLQMNILKPEDTAVYYCNAGGVRATKGYDYWGQGTQVTVSS` landed at low polyreactivity
